Origin of values: the RepoRT retention time repository (doi:10.1016/j.jhazmat.2019.121712)

Listing: LC retention time of selected molecules
Experiment: Thermo Scientific Acclaim RSLC 120 C18, 100 × 2.1 mm, 2.2 µm, 30 °C; A: 90% water + 10% methanol + 0.01% formic acid + 5 mM ammonium formate; B: methanol + 0.01% formic acid + 5 mM ammonium formate; gradient (min/%B) 0.1/1 3/39 14/99.9 16/99.9
Details: stereoisomer not certain

| molecule | LC retention time (min) |
| --- | --- |
| O=C(O)c1ccc2n[nH]nc2c1 | 3.81 |
| COc1ccccc1CC(=O)c1cn(CCC2CCCCC2)c2ccccc12 | 13 |
| CCC1CN2CCc3c([nH]c4cccc(OC)c34)C2CC1C(=COC)C(=O)OC (centres undefined) | 6.23 |
| CNC(=O)ON=C(C)C(C)S(C)=O (centres undefined) | 3.35 |
| COc1ccc2cccc(CCNC(C)=O)c2c1 | 8.68 |
| CCS(=O)(=O)CCn1c([N+](=O)[O-])cnc1C | 3.86 |
| CCCc1nn(C)c2c(=O)[nH]c(-c3cc(C(=O)N4CCN(CC)CC4)ccc3OCC)nc12 | 6.78 |
| CCNC1(c2cccc(OC)c2)CCCCC1=O (centres undefined) | 4.93 |
| CCOC(=O)C(CCc1ccccc1)NC(C)C(=O)N1CC2(CC1C(=O)O)SCCS2 (centres undefined) | 8.23 |

----------
Test: Thermo Scientific Acclaim RSLC 120 C18, 100 × 2.1 mm, 2.2 µm, 30 °C; A: 90% water + 10% methanol + 0.01% formic acid + 5 mM ammonium formate; B: methanol + 0.01% formic acid + 5 mM ammonium formate; gradient (min/%B) 0.1/1 3/39 14/99.9 16/99.9
Conditions: stereoisomer not certain
Listing: LC retention time of selected molecules

| molecule | LC retention time |
| --- | --- |
| CCN(CC)C(=O)c1cccc(C)c1 | 8.2 min |
| CCC(C)Nc1c([N+](=O)[O-])cc(C(C)(C)C)cc1[N+](=O)[O-] (stereo unspecified) | 13 min |
| CCOP(=S)(NC(C)CC)Oc1cc(C)ccc1[N+](=O)[O-] (stereo unspecified) | 11.2 min |
| CC(C)NCC(O)COc1cccc2ccccc12 (stereo unspecified) | 6.59 min |
| COc1cccc(C(=O)NN(C(=O)c2cc(C)cc(C)c2)C(C)(C)C)c1C | 9.56 min |
| CN(C)CCc1c[nH]c2ccc(Cn3cncn3)cc12 | 3.49 min |
| CCCc1ccc(C(=O)c2cn(CCC)c3ccccc23)c2ccccc12 | 12.7 min |
| CCOC(=O)CC(SP(=O)(OC)OC)C(=O)OCC (stereo unspecified) | 7.01 min |
| CN1CCCCC1CCN1c2ccccc2Sc2ccc(S(C)=O)cc21 (stereo unspecified) | 6.74 min |
| CCOP(=S)(OCC)ON=C(C#N)c1ccccc1 | 11.2 min |
| Nc1ccc(S(=O)(=O)Nc2cnc3ccccc3n2)cc1 | 5.81 min |
| COCC(NC(C)=O)C(=O)NCc1ccccc1 (stereo unspecified) | 5.09 min |
| CCCCCCCCc1ccc(OCCO)cc1 | 12.4 min |
| O=C(O)Cc1cccc2ccccc12 | 7.76 min |
| C=CCC(C(=O)NC(N)=O)C(C)C (stereo unspecified) | 6.94 min |
| CCC(C)(C)c1ccc(CC(C)CN2CC(C)OC(C)C2)cc1 (stereo unspecified) | 12.9 min |
| O=[N+]([O-])c1cncn1CCN1CCOCC1 | 4.09 min |
| CCCc1nn(C)c2c(=O)[nH]c(-c3cc(S(=O)(=O)N4CCN(Cc5ccccc5)CC4)ccc3OCC)nc12 | 11.5 min |
| CCOP(=S)(OCC)Oc1cnc2ccccc2n1 | 10.8 min |
| COc1cc2nc(N3CCN(C(=O)c4ccco4)CC3)nc(N)c2cc1OC | 5.34 min |
| CSc1nc(NC(C)C)nc(NC(C)C)n1 | 10.1 min |
| CCC1OC(=O)C(C)C(OC2CC(C)(OC)C(O)C(C)O2)C(C)C(OC2OC(C)CC(NC)C2O)C(C)(OC)CC(C)C(=O)C(C)C(O)C1(C)O (stereo unspecified) | 9.16 min |
| CNC(=C[N+](=O)[O-])NCCSCc1ccc(C[N+](C)(C)[O-])o1 | 3.43 min |
| COc1cc2c(cc1OC)CC(=O)N(CCCN(C)CC1Cc3cc(OC)c(OC)cc31)CC2 (stereo unspecified) | 5.02 min |
| CNCC(C)CN1c2ccccc2CCc2ccccc21 (stereo unspecified) | 8.49 min |
| O=C1OCCN1N=Cc1ccc([N+](=O)[O-])o1 | 4.19 min |
| CC(C)C(O)(C(=O)OCC1=CC[N+]2([O-])CCC(O)C12)C(C)O (stereo unspecified) | 3.94 min |
| CCc1cccc(C)c1N(C(=O)CS(=O)(=O)O)C(C)COC (stereo unspecified) | 7.34 min |
| CCNc1nc(NC(C)(C)C)nc(SC)n1 | 10.2 min |
| COc1cc(C=C2CCCC(=Cc3ccc(O)c(OC)c3)C2=O)ccc1O | 9.59 min |
| CCC(CC)COC(C(=O)OCCN(C)C)(c1ccccc1)c1ccccc1 | 11.6 min |
| Cc1ncc(CO)c(CO)c1O | 2.18 min |
| CCCc1nc(C)c2c(=O)[nH]c(-c3cc(S(=O)(=O)N4CCN(CCO)CC4)ccc3OCC)nn12 | 8.05 min |
| CCCc1nn(C)c2c(=O)[nH]c(-c3cc(S(=O)(=O)N4CC(C)NC(C)C4)ccc3OCC)nc12 (stereo unspecified) | 7.6 min |
| CCC(CO)NCCNC(CC)CO (stereo unspecified) | 1.93 min |
| CNC(=C[N+](=O)[O-])NCCSCc1csc(CN(C)C)n1 | 2.96 min |
